target: CB1 receptor (Homo sapiens); construct: expressed in transfected cells; assay: Binding assay for CB1 agonists or inverse agonists (SK-N-MC membranes, [3H]-CP-55,940); details: read-out: CB1 receptor binding percent inhibition, test concentration 0.2 μM (footnote 2)
Attribute: inhibition at 0.2 µM
outcomeMeasure: inhibition at 0.2 µM (%)

* COC(=O)[C@@H](Cc1ccc(F)cc1)NC(=O)c1nn(C)c2c1CCCC/C2=C\c1cccc(F)c1 [Cpd 248] | 89
* COC(=O)[C@@H](Cc1ccc(F)cc1)NC(=O)c1n[nH]c2c1CCCC/C2=C\c1cccc(Cl)c1 [Cpd 245] | 68
* O=C(N[C@H](CCl)c1ccccc1)c1nn(-c2nccc(C(F)(F)F)n2)c2c1CCCCC2Cc1cccc(Cl)c1 (some centres unmarked) [Cpd 179] | 0
* O=C(N[C@H](CO)Cc1ccccc1)c1n[nH]c2c1CCCCC2Cc1cccc(Cl)c1 (some centres unmarked) [Cpd 166] | 24
* O=C(c1nn(-c2cc(Cl)ccc2Cl)c2c1CCCC/C2=C\c1ccc(Cl)cc1)N1CCOCC1 [Cpd 201] | 11
* O=C(N[C@@H](CO)Cc1ccccc1)c1n[nH]c2c1CCCCC2Cc1cccc(Cl)c1 (some centres unmarked) [Cpd 167] | 57
* C[C@H](NC(=O)c1nn(-c2cc(Cl)ccc2Cl)c2c1CCCC/C2=C\c1ccc(Cl)cc1)C1CCCCC1 [Cpd 197] | 83
* O=C(NN1CCOCC1)c1nn(-c2ccc(Cl)cc2Cl)c2c1CCCC/C2=C\c1ccc(F)cc1 [Cpd 151] | 51

* * *

molecular target: CB1 receptor (Homo sapiens, UniProt P21554); construct: expressed in transfected cells; test: cell-based; conditions: CB1 Receptor Functional Agonist EC50, SK-N-MC cells, forskolin induced β-galactosidase activity
Sequence (P21554 whole entry): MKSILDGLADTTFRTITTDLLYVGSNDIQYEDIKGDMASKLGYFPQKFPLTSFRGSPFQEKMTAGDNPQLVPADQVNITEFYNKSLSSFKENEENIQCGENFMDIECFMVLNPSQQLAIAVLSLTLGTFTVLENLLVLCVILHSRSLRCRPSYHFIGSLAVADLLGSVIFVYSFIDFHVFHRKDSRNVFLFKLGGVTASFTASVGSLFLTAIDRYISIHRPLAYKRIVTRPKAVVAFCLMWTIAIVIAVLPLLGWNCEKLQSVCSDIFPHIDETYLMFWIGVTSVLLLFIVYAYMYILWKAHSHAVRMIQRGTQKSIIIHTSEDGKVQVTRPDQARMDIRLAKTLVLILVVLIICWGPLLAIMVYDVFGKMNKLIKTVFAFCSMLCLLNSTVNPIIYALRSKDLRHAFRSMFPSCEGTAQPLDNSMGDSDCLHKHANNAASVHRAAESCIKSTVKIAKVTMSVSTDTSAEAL
outcomeMeasure: EC50 (µM)

- COC(=O)[C@H](Cc1ccc(F)cc1)NC(=O)c1nn(C)c2c1CCCC/C2=C\c1cccc(F)c1: 2.8
- O=C(N[C@@H](CO)c1ccccc1)c1n[nH]c2c1CCCCC2Cc1cccc(Cl)c1 (some centres unmarked) [Cpd 165]: 0.03
- Cn1nc(C(=O)N[C@H](CO)Cc2ccc(O)cc2)c2c1/C(=C/c1cccc(F)c1)CCCC2: 0.6
- Cn1nc(C(=O)N[C@H]2C3(C)CCC(C3)C2(C)C)c2c1C(Cc1ccccc1Cl)CCCC2 (some centres unmarked): 0.1
- COC(=O)[C@H](Cc1ccc(F)cc1)NC(=O)c1n[nH]c2c1CCCC/C2=C\c1ccc(Cl)cc1: 0.15
- COC(=O)[C@@H](Cc1ccc(O)cc1)NC(=O)c1nn(C2CCCCC2)c2c1CCCCC2Cc1ccc(F)cc1 (some centres unmarked): 1.7

* * *

target: CB2 receptor (Homo sapiens, UniProt P34972); construct: expressed in transfected cells; assay: Binding assay for CB2 agonists or inverse agonists (SK-N-MC membranes, [3H]-CP-55,940); conditions: test concentration not stated
Sequence (P34972 whole entry): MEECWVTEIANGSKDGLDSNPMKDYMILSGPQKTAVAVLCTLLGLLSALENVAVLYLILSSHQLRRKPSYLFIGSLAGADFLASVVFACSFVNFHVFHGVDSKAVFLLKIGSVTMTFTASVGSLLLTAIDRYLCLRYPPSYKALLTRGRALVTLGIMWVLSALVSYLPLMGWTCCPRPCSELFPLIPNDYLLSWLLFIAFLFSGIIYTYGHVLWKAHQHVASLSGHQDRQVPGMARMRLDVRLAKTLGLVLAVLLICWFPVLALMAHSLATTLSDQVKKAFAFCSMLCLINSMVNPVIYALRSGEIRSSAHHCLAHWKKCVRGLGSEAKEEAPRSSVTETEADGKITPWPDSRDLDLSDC
Parameter threshold = 20%. Response is 1 when CB2 receptor binding percent inhibition meets or exceeds it, else 0.

• CC12CCC(C1)C(C)(C)[C@H]2NC(=O)c1nn(-c2ccc(Cl)cc2Cl)c2c1CCCCC2Cc1ccc(Cl)cc1 (stereo partly shown) = 0
• O=S(=O)(/C=C/c1nn(-c2ccc(F)cc2F)c2c1CCCCC2Cc1ccc(F)cc1)NN1CCOCC1 (stereo not shown) = 0
• O=C(N[C@@H](CO)c1ccccc1)c1nn(C2CCCCC2)c2c1CCCCC2Cc1cccc(F)c1 (stereo partly shown) = 0
• Cn1nc(C(=O)NC2CCC2)c2c1C(Cc1ccccc1Cl)CCCC2 (stereo not shown) = 1
• CC12CCC(C1)C(C)(C)[C@H]2NC(=O)c1nn(C2CCCCC2)c2c1CCCCC2Cc1ccc(F)cc1 (stereo partly shown) = 1
• O=C(NC1CC1)c1nn(Cc2ccc(Cl)cc2)c2c1CCCCC2Cc1ccc(Cl)cc1 (stereo not shown) = 0
• C[C@H](NS(=O)(=O)/C=C/c1nn(-c2ccc(F)cc2F)c2c1CCCCC2Cc1cccc(F)c1)c1ccccc1 (stereo partly shown) = 1
• O=C(NC1CCC1)c1nn(-c2ccc(Cl)cc2Cl)c2c1CCCCC2Cc1ccc(Cl)cc1 (stereo not shown) = 0
• O=C(NC1C2CC3CC(C2)CC1C3)c1nn(C2CCCCC2)c2c1CCCCC2Cc1ccc(Cl)cc1 (stereo not shown) = 1
• O=C(N[C@@H]1c2ccccc2C[C@@H]1O)c1nn(-c2ccc(F)cc2F)c2c1CCCCC2Cc1cccc(F)c1 (stereo partly shown) = 0
• CC(NC(=O)c1nn(C2CCCCC2)c2c1CCCCC2Cc1cccc(Cl)c1)C12CC3CC(CC(C3)C1)C2 (stereo not shown) = 0
• COC(=O)[C@@H](Cc1ccc(O)cc1)NC(=O)c1nn(-c2ccc(Cl)cc2Cl)c2c1CCCCC2Cc1cccc(Cl)c1 (stereo partly shown) = 1
• O=C(NC1CCC1)c1nn(C2CCCCC2)c2c1CCCCC2Cc1ccc(F)cc1 (stereo not shown) = 1
• O=C(NN1CCCCC1)c1nn(C2CCCCC2)c2c1CCCCC2Cc1cccc(F)c1 (stereo not shown) = 1
• O=C(NC12CC3CC(CC(C3)C1)C2)c1nn(C2CCCCC2)c2c1CCCCC2Cc1ccc(Cl)cc1 (stereo not shown) = 1
• CC12CCC(C1)C(C)(C)[C@H]2NC(=O)c1nn(-c2ccc(Cl)cc2Cl)c2c1CCCCC2Cc1ccc(F)cc1 (stereo partly shown) = 1
